This collection of values is drawn from patent US8217042B2.

I'd be grateful if you could share measured melting point for these entries.
Counter-ions that a name gives are not always drawn.

Task item: Please give the measured melting point for this molecule: CCNC(=O)Nc1ccc2ncc(Nc3cccc(C(=O)NC)c3)nc2n1 [Compound 50]
Reply: 228 to 234 °C

Task item: Please give the measured melting point for this molecule: CCNC(=O)Nc1ccc2ncc(Nc3ccc(C4CCCCC4)cc3)nc2n1 [Compound 47]
Reply: 246 to 248 °C

Task item: Please give the measured melting point for this molecule: CCNC(=O)Nc1ccc(-c2cnc3ccc(NC(=O)NCC)nc3n2)cc1 [Compound 23]
Reply: > 350 °C (dec.)

Task item: Please give the measured melting point for this molecule: CCNC(=O)Nc1ccc2ncc(/C=C/c3ccc(F)cc3)nc2n1 [Compound 27]
Reply: 217 to 219 °C

Task item: Please give the measured melting point for this molecule: COCCOC(=O)Oc1ccc(-c2cnc3ccc(NC(=O)NCCCCO)nc3n2)cc1 (as salt: hydrochloride) [Compound 58]
Reply: 165 to 168 °C

Task item: Please give the measured melting point for this molecule: CCNC(=O)Nc1ccc2ncc(C#CC3CC3)nc2n1 [Compound 3]
Reply: 227 to 228 °C (dec.)

Task item: Please give the measured melting point for this molecule: `CCNC(=O)Nc1ccc2ncc(-c3cccc([Si](C)(C)C)c3)nc2n1`
Reply: 224 to 228 °C

Task item: Please give the measured melting point for this molecule: CCNC(=O)Nc1ccc2ncc(-c3ccc(OC(=O)OCCOC)cc3)nc2n1 [Compound 10]
Reply: 230 to 232 °C

Task item: Please give the measured melting point for this molecule: CCNC(=O)Nc1ccc2ncc(-c3ccc(NC(=O)COCCOC)cc3)nc2n1 [Compound 30]
Reply: 212 to 215 °C

Task item: Please give the measured melting point for this molecule: CCNC(=O)Nc1ccc2ncc(-c3ccc(OC(=O)N(C)C)cc3)nc2n1 [Compound 19]
Reply: > 230 °C (dec.)

Task item: Please give the measured melting point for this molecule: CCNC(=O)Nc1ccc2ncc(Nc3ccc(-c4ccsc4)cc3)nc2n1 [Compound 52]
Reply: 264 to 267 °C

Task item: Please give the measured melting point for this molecule: CCNC(=O)Nc1ccc2ncc(Nc3ccc(S(C)(=O)=O)cc3)nc2n1 [Compound 48]
Reply: 275 to 280 °C

Task item: Please give the measured melting point for this molecule: CCNC(=O)Nc1ccc2ncc(Nc3ccc(C)c(NS(C)(=O)=O)c3)nc2n1 [Compound 49]
Reply: 247 to 250 °C

Task item: Please give the measured melting point for this molecule: CCNC(=O)Nc1ccc2ncc(C#Cc3ccsc3)nc2n1 [Compound 2]
Reply: 239 to 242 °C (dec.)

Task item: Please give the measured melting point for this molecule: CCNC(=O)Nc1ccc2ncc(C#Cc3ccccc3)nc2n1 [Compound 1]
Reply: 236 to 238 °C (dec.)

Task item: Please give the measured melting point for this molecule: CCNC(=O)Nc1ccc2ncc(Nc3ccc(CN4CCCCC4)cc3)nc2n1 [Compound 51]
Reply: 221 to 224 °C

Task item: Please give the measured melting point for this molecule: CCNC(=O)Nc1ccc2ncc(-c3ccc(NC(=O)OCCOC)cc3)nc2n1 [Compound 22]
Reply: 249 to 251 °C

Task item: Please give the measured melting point for this molecule: CCNC(=O)Nc1ccc2ncc(CCc3ccc(F)cc3)nc2n1 [Compound 26]
Reply: 207 to 209 °C

Task item: Please give the measured melting point for this molecule: CCNC(=O)Nc1ccc2ncc(-c3ccc(OC(=O)/C=C/c4ccccc4)cc3)nc2n1 [Compound 13]
Reply: 236 to 238 °C
